Target: ASIC1a (acid-sensing ion channel 1a) (Homo sapiens)
Sequence (P78348 1-528): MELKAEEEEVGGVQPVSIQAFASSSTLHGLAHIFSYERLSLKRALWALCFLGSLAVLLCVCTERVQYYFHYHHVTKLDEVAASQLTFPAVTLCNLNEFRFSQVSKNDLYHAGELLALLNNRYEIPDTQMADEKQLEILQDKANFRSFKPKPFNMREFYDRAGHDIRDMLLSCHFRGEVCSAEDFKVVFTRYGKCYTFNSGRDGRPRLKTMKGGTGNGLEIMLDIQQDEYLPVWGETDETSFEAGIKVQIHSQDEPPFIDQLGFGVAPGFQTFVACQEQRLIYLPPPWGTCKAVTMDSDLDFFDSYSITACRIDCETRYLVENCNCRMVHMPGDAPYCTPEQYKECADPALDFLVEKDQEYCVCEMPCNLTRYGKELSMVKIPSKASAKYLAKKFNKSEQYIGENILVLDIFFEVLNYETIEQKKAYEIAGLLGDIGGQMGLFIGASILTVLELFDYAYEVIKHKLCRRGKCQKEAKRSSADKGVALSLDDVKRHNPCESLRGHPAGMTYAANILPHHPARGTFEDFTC
Test: microscale thermophoresis in cell lysate, pH […] ([…] at pH […]); patch clamp
Format: binding
Design: gene ASIC1; GFP-tagged hASIC1a in lysates of transfected HEK293T cells
readout.type: pKd
Reminder that pKd is minus the log10 of a molar concentration.

Input N[C@@H](CCC(=O)O)C(=O)O [glutamate] , output reported pKd.
3.95
